Measured EC50 (read off the curve) of individual entries
# SYSTEM TESTED: T1, human CD123 (full-length, on cells) (human, UniProt P26951 19-378)
# T1 construct: also called CD123-FL; interleukin-3 receptor alpha chain
# T1 sequence (P26951 19-378): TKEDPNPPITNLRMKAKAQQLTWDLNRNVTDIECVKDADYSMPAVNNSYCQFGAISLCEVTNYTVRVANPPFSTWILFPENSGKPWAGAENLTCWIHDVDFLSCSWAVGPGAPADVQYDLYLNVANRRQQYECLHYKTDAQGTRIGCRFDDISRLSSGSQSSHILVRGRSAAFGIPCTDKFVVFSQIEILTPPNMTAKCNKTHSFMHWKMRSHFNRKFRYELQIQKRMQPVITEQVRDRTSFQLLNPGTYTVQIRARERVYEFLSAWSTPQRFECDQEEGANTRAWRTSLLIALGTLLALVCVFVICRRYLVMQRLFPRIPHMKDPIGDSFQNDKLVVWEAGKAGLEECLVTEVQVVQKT
# PROTOCOL DETAILS: flow cytometry, HEK 293 cells transfected with full-length CD123 (CD123-FL); Median RL-1H
ENDPOINT NAME: EC50 (read off the curve)

- hz1B11v28-IgG1 (Fc fusion, also called hz1B11v28 sdAb) EVQLVESGGGEVQPGGSLRLSCAASGRTQSAVAMGWFRQAPGKDRDFVAAIRWSGGNTYYAESVEGRFTISRDNAKNTVYLQMSSLRAEDTAVYSCAISLNHFGLYDYWGQGTLVTVDKTHTCPPCPAPGGPSVFLFPPKPKDTLMISRTPEVTCVVVDVSHEDPEVKFNWYVDGVEVHNAKTKPREEQYNSTYRVVSVLTVLHQDWLNGKEYKCKVSNKALPAPIEKTISKAKGQPREPQVYTLPPSRDELTKNQVSLTCLVKGFYPSDIAVEWESNGQPENNYKTTPPVLDSDGSFFLYSKLTVDKSRWQQGNVFSCSVMHEALHNHYTQKSLSLSPGK: ~0.9 nM
- hzF3v26-IgG1 (Fc fusion) EVQLVESGGGLVQPGGSLRLSCRASGRAINAYNMGWFRQAPGKGREFVSAINWNAARTYYAESVKGRFTISRDNAKNTLYLQMSSLRAEDTAVYYCAASGRWSAAVPSGEDQYNFWGQGTLVTVDKTHTCPPCPAPGGPSVFLFPPKPKDTLMISRTPEVTCVVVDVSHEDPEVKFNWYVDGVEVHNAKTKPREEQYNSTYRVVSVLTVLHQDWLNGKEYKCKVSNKALPAPIEKTISKAKGQPREPQVYTLPPSRDELTKNQVSLTCLVKGFYPSDIAVEWESNGQPENNYKTTPPVLDSDGSFFLYSKLTVDKSRWQQGNVFSCSVMHEALHNHYTQKSLSLSPGK: ~1 nM
